- target: Ubiquitin-like modifier-activating enzyme ATG7 (Homo sapiens, UniProt O95352)
- Sequence (O95352 whole entry): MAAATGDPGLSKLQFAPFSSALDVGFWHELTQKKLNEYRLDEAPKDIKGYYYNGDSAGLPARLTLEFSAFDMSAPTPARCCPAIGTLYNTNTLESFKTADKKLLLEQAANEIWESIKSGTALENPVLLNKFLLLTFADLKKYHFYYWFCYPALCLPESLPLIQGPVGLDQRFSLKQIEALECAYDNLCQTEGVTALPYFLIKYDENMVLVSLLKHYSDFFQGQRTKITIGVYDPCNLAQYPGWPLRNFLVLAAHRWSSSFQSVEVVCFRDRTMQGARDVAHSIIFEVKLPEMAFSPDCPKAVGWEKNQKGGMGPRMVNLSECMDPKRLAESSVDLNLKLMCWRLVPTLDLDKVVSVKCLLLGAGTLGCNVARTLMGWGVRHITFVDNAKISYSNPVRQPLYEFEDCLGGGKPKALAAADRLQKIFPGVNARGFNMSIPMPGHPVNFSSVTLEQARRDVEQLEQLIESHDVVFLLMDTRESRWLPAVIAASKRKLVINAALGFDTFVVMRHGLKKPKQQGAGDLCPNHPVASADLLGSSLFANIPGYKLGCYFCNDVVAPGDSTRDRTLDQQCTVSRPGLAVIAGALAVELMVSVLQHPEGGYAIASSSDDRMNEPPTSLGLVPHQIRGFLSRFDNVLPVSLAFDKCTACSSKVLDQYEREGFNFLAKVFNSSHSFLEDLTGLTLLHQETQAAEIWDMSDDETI
- assayComment: Inhibition of ATG7 in human 293HEK cells assessed as inhibition of ATG7:ATG8 thioester formation after 4 hrs by Western blot analysis
- Type: cell-based, HEK293
// boundary case: IC50 equal to 400 nM maps to Not satisfied; strictly smaller maps to Satisfied

[[record]]
structurenotation = "CC(C)Sc1nn([C@@H]2O[C@@H](COS(N)(=O)=O)[C@@H](O)[C@H]2O)c2ncnc(N)c12"
classassignment = "Not satisfied"

[[record]]
structurenotation = "CC(C)Sc1nn([C@@H]2O[C@H](COS(N)(=O)=O)[C@@H](O)[C@@H]2F)c2ncnc(N)c12"
classassignment = "Satisfied"

[[record]]
structurenotation = "CC(C)Sc1nn([C@H]2C[C@H](O)[C@@H](COS(N)(=O)=O)O2)c2ncnc(N)c12"
classassignment = "Not satisfied"

[[record]]
structurenotation = "CSc1nn([C@H]2C[C@H](O)[C@@H](COS(N)(=O)=O)O2)c2ncnc(N)c12"
classassignment = "Satisfied"

[[record]]
structurenotation = "CSc1nn([C@@H]2O[C@H](COS(N)(=O)=O)[C@@H](O)[C@H]2O)c2ncnc(N)c12"
classassignment = "Not satisfied"


----------
- target: Ubiquitin-like modifier-activating enzyme ATG7 (Homo sapiens)
- Sequence (O95352 whole entry): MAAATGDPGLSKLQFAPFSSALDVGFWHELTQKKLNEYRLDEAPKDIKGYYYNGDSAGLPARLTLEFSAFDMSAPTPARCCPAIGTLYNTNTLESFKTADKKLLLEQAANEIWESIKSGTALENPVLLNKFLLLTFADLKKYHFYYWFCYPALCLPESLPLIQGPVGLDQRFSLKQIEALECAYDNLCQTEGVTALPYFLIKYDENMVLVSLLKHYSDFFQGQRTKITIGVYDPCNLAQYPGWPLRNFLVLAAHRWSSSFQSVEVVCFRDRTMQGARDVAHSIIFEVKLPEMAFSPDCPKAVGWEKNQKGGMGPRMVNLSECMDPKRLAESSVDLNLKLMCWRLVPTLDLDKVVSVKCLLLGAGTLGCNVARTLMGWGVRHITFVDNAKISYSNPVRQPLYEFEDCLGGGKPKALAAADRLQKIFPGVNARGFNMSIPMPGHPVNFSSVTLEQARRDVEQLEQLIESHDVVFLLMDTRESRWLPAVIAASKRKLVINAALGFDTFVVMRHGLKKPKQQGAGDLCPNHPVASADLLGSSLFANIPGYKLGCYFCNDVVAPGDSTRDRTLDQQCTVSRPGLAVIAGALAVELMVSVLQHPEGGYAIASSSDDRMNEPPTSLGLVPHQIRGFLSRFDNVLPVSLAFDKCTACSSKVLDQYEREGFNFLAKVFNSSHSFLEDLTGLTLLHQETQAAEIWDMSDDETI
- assayComment: Inhibition of ATG7 in human 293HEK cells assessed as inhibition of ATG7:ATG8 thioester formation after 4 hrs by Western blot analysis
- Format: cell-based, HEK293
pIC50: −log10 of the molar value.
Overview of recorded pIC50 for various compounds
readoutType: pIC50

[[record]]
structurenotation = "CC(C)Sc1nn([C@H]2C[C@H](O)[C@H](COS(N)(=O)=O)O2)c2ncnc(N)c12"
readoutvalue = 6.33

[[record]]
structurenotation = "Nc1ncnc2c1c(Sc1cccc(Cl)c1)nn2[C@H]1C[C@H](O)[C@@H](COS(N)(=O)=O)O1"
readoutvalue = 6.30

[[record]]
structurenotation = "Nc1ncnc2c1c(Sc1cn[nH]c1)nn2[C@@H]1O[C@H](COS(N)(=O)=O)[C@@H](O)[C@H]1O"
readoutvalue = 5.89

[[record]]
structurenotation = "CC(C)Sc1nn([C@@H]2O[C@H](COS(N)(=O)=O)[C@@H](O)[C@H]2O)c2ncnc(N)c12"
readoutvalue = 5.90

